# Target Under Test: Human immunodeficiency virus type 1 integrase (Human immunodeficiency virus 1)
# Assay Name: Concentration to inhibit strand transfer of wild type Human immunodeficiency virus-1 integrase
Measured Metric: pIC50
Give bare numbers, as −log10 of the molar value.

{"Item Smiles": "O=C(Nc1ccc(Cc2ccc(NC(=O)c3cccs3)c(C(=O)O)c2)cc1C(=O)O)c1cccs1", "Target Under Test": "Human immunodeficiency virus type 1 integrase (Human immunodeficiency virus 1)", "pIC50": 4.42}
{"Item Smiles": "COC(=O)c1sccc1NC(=O)c1ccc(C(=O)Nc2ccsc2C(=O)OC)cc1", "Target Under Test": "Human immunodeficiency virus type 1 integrase (Human immunodeficiency virus 1)", "pIC50": 4.01}
{"Item Smiles": "O=C(O)c1cc(NS(=O)(=O)c2ccc(NCc3ccccc3)c([N+](=O)[O-])c2)cc(C(=O)O)c1", "Target Under Test": "Human immunodeficiency virus type 1 integrase (Human immunodeficiency virus 1)", "pIC50": 4.18}
{"Item Smiles": "C/C(CC(=O)Nc1c(C)cc(C)cc1C)=N\\NC(=O)c1ccc(O)cc1O", "Target Under Test": "Human immunodeficiency virus type 1 integrase (Human immunodeficiency virus 1)", "pIC50": 3.82}

Provide the reported pIC50 of each entry below, same order.
1. O=C(Nc1ccc(Cc2ccc(NC(=O)c3cccc([N+](=O)[O-])c3)c(C(=O)O)c2)cc1C(=O)O)c1cccc([N+](=O)[O-])c1
2. COC(=O)C1=C(O)/C(=C\c2ccc(CNC(=O)C(=O)Nc3ccc(C)cc3)o2)N=C1C

1. 4.89
2. 4.09

* * *

I'd appreciate it if you could supply IC50 values for the items below.
# Target Under Test: Human immunodeficiency virus type 1 integrase (Human immunodeficiency virus 1, UniProt Q7ZJM1)
# Sequence (Q7ZJM1 whole entry): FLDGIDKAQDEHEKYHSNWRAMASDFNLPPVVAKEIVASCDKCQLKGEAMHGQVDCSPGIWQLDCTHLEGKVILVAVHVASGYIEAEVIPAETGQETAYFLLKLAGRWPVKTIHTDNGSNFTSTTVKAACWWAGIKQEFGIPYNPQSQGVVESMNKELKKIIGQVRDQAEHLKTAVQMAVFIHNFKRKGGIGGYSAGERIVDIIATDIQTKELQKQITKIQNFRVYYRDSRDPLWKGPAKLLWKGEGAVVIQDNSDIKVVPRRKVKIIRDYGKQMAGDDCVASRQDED
# Assay Name: Concentration to inhibit 3' processing of wild type Human immuno deficiency virus-1 integrase

Example compounds with recorded IC50:
{"Item Smiles": "O=C(O)c1cc(NS(=O)(=O)c2ccc(NCCCN3CCOCC3)c([N+](=O)[O-])c2)cc(C(=O)O)c1", "IC50": "140 µM"}
{"Item Smiles": "COc1ccc2[nH]c(SCC(=O)Nc3ccc(O)c(C(=O)O)c3)nc2c1", "IC50": "> 100 µM"}

Provide the reported IC50 of each entry below, same order.
1. O=C(NCc1cccc(CNC(=O)C(=O)NCc2ccco2)c1)C(=O)NCc1ccco1
2. COc1ccc(C(=O)Nc2ccc(Cc3ccc(NC(=O)c4ccc(OC)cc4)c(O)c3)cc2O)cc1
3. COc1cc(/C=N/NC(=O)c2cc(C3CC3)[nH]n2)ccc1O
4. COc1ccc(NS(=O)(=O)c2cccc(C(=O)Nc3ccccc3C(=O)O)c2)cc1
5. CCOC(=O)c1cc(C(=O)OCC)c(SCC(=O)Nc2ccc(Br)cc2)nc1O
6. O=C(NCc1ccco1)c1cc(C(=O)NCc2ccco2)cc(C(=O)NCc2ccco2)c1
7. Cc1ccc(NC(=O)C(=O)NCc2ccc(/C=N\NC(=O)C(=O)Nc3cc(Cl)ccc3C)o2)cc1C

> 100 µM
> 100 µM
> 100 µM
355 µM
> 100 µM
37 µM
> 100 µM

* * *

# Target Under Test: Human immunodeficiency virus type 1 integrase (Human immunodeficiency virus 1, UniProt Q7ZJM1)
# Assay Name: Concentration to inhibit strand transfer of wild type Human immuno deficiency virus-1 integrase
pIC50: −log10 of the molar value.
Rule: pIC50 under 4 gives Not fulfilled, otherwise Fulfilled.

Some solved entries appear below for comparison.
{"Item Smiles": "O=C(N/N=C/c1ccc(O)cc1O)c1cc(C2CC2)[nH]n1", "Answer Label": "Fulfilled"}
{"Item Smiles": "CCc1cc(/C=N/CC/N=C/c2cc(CC)sc2S)c(S)s1", "Answer Label": "Fulfilled"}
{"Item Smiles": "COc1ccc2[nH]c(SCC(=O)Nc3ccc(O)c(C(=O)O)c3)nc2c1", "Answer Label": "Not fulfilled"}
{"Item Smiles": "O=C(c1ccccc1)c1ccc(OCC(O)COc2ccc(C(=O)c3ccccc3)c(O)c2)cc1O", "Answer Label": "Not fulfilled"}
{"Item Smiles": "O=C(NCc1ccco1)c1cc(C(=O)NCc2ccco2)cc(C(=O)NCc2ccco2)c1", "Answer Label": "Fulfilled"}

Would you say `Cc1ccc(NC(=O)C(=O)NCc2ccc(/C=N\NC(=O)C(=O)Nc3cc(Cl)ccc3C)o2)cc1C` shows pIC50 at minimum 4?
Not fulfilled

Try this molecule too: `COc1ccc(C(=O)Nc2ccc(Cc3ccc(NC(=O)c4ccc(OC)cc4)c(O)c3)cc2O)cc1`
Not fulfilled

Try this molecule too: `COc1ccc(NS(=O)(=O)c2cccc(C(=O)Nc3ccccc3C(=O)O)c2)cc1`
Not fulfilled

The origin of these recorded values is ChEMBL document CHEMBL1142702.
